Kindly supply the reported IC50 values for the records listed here.
System: Z-138
Assay: Antiproliferative activity against human Z138 cells measured after 7 days by CellTiter-Glo luminescence cell viability assay
Format: functional, cell-based
Conditions: Z-138, 168 h
One number for each entry, in nM.

Consider the following illustrative entries.
>  <CHEMICAL_STRING>
CC(=O)N1CCC(Nc2ccc3c(c2)C(=O)N(C[C@H](O)CN2CCc4ccccc4C2)CC32CC2)CC1

>  <IC50 (nM)>
4.33

$$$$
>  <CHEMICAL_STRING>
CC(=O)N1CCC(Nc2ccc3c(c2)C(=O)N(C[C@H](O)CN2CCc4ccccc4C2)CC32CCC2)CC1

>  <IC50 (nM)>
3.89

$$$$
>  <CHEMICAL_STRING>
Cn1cc(C(=O)Nc2ccc3c(c2)C(=O)N(C[C@H](O)CN2CCc4ccccc4C2)CC32CC2)cn1

>  <IC50 (nM)>
292

$$$$

Now, please, on to the next compound.
query: Please look up its IC50: O=C(Nc1ccc2c(c1)C(=O)N(C[C@H](O)CN1CCc3ccccc3C1)CC21CC1)C1CCOCC1
result: 282

----------
Molecular target: Cytochrome P450 3A4 (Homo sapiens, UniProt P08684)
Sequence (P08684 whole entry): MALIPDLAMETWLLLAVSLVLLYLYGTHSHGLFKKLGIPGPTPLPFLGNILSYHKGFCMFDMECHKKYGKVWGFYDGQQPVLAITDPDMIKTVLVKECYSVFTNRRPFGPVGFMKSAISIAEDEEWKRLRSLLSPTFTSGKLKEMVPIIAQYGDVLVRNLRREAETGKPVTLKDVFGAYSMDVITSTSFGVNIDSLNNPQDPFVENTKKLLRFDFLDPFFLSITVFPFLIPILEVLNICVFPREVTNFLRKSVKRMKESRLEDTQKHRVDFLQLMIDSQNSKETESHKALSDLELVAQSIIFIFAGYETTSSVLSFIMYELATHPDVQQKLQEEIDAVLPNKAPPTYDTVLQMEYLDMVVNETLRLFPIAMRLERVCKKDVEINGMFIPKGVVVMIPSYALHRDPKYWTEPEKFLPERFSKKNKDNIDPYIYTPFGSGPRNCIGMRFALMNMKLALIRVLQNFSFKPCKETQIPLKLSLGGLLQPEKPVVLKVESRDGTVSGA
Assay: Inhibition of CYP3A4 (unknown origin) using midazolam as substrate
Format: ADME
ATTRIBUTE_MEASURED: IC50

query: Please look up its IC50: CC(=O)N1CC2(CC(Nc3cc4c(cn3)C3(CC3)CN(C[C@H](O)CN3CCc5ccccc5C3)C4=O)C2)C1
result: > 50 µM

----------
Assay: Cmax in Sprague-Dawley rat at 10 mg/kg, po by LC-MS/MS analysis
Assay type: ADME, organism-based
Details: Sprague-Dawley, in vivo, read-out: Cmax
Kindly supply the reported Cmax values for the records listed here.

Consider the following illustrative entries.
>  <COMPOUND>
CC(=O)N1CCC(Nc2cc(C(=O)NC[C@H](O)CN3CCc4ccccc4C3)ncn2)CC1 [PEMRAMETOSTAT]

>  <ATTRIBUTE_MEASURED>
Cmax

>  <RECORDED_MEASUREMENT>
355 ng/mL

$$$$
>  <COMPOUND>
CC(=O)N1CCC(Nc2ccc3c(c2)C(=O)N(C[C@H](O)CN2CCc4ccccc4C2)CC32CC2)CC1

>  <ATTRIBUTE_MEASURED>
Cmax

>  <RECORDED_MEASUREMENT>
1150 ng/mL

$$$$
>  <COMPOUND>
CC(=O)N1CCC(Nc2ccc3c(c2)C(=O)N(C[C@H](O)CN2CCc4ccccc4C2)CC32CCC2)CC1

>  <ATTRIBUTE_MEASURED>
Cmax

>  <RECORDED_MEASUREMENT>
840 ng/mL

$$$$
>  <COMPOUND>
CC(=O)N1CC2(CC(Nc3cc4c(cn3)C3(CC3)CN(C[C@H](O)CN3CCc5ccccc5C3)C4=O)C2)C1

>  <ATTRIBUTE_MEASURED>
Cmax

>  <RECORDED_MEASUREMENT>
894 ng/mL

$$$$

Now, please, on to the next compound.
query: Please look up its Cmax: CC(=O)N1CCC(Nc2cc3c(cn2)C2(CC2)CN(C[C@H](O)CN2CCc4ccccc4C2)C3=O)CC1
result: 145 ng/mL

----------
Kindly supply the reported half-life values for the records listed here.
Test: Half-life in Sprague-Dawley rat at 2 mg/kg, iv by LC-MS/MS analysis
Type: ADME, organism-based
Conditions: in vivo
One number for each entry, in min.

>  <MOLECULE>
CC(=O)N1CCC(Nc2cc(C(=O)NC[C@H](O)CN3CCc4ccccc4C3)ncn2)CC1 [PEMRAMETOSTAT]

>  <half-life / min>
18

$$$$

For each entry beneath this line, provide reported half-life.
1. CC(=O)N1CCC(Nc2cc3c(cn2)C2(CC2)CN(C[C@H](O)CN2CCc4ccccc4C2)C3=O)CC1
2. CC(=O)N1CCC(Nc2ccc3c(c2)C(=O)N(C[C@H](O)CN2CCc4ccccc4C2)CC32CCCC2)CC1
3. CC(=O)N1CCC(Nc2ccc3c(c2)C(=O)N(C[C@H](O)CN2CCc4ccccc4C2)CC32CC2)CC1
4. CC(=O)N1CC2(CC(Nc3cc4c(cn3)C3(CC3)CN(C[C@H](O)CN3CCc5ccccc5C3)C4=O)C2)C1

result:
1: 24; 2: 78; 3: 24; 4: 24

query: Please look up its half-life: CC(=O)N1CCC(Nc2ccc3c(c2)C(=O)N(C[C@H](O)CN2CCc4ccccc4C2)CC32CCC2)CC1
result: 48
